# Test Summary: Inhibition of HCV envelope protein E2 protein interaction with CD81 receptor (unknown origin) by BIAcore assay
# Design: species or system Hepacivirus hominis
Recorded Metric: Kd (µM)
Record the value in µM, omitting the unit from your answer.

Problem: Record request: Kd value, item CC1(C)CC[C@]2(C(=O)O)[C@H](O)C[C@]3(C)C(=CC[C@@H]4[C@@]5(C)CC[C@H](O)C(C)(C)[C@@H]5CC[C@]43C)[C@H]2C1 [ECHINOCYSTIC ACID]
Result: 24

---

# System: Hepatitis C virus
# Test Summary: Antiviral activity against pseudo HCV infected in human 293T cells assessed as inhibition of HCV pseudo particles entry at 10 uM after 72 hrs by luciferase reporter gene assay
# Assay type: functional, Hepacivirus hominis
# Test Context: HEK-293T
Recorded Metric: inhibition at 10 µM (%)
Enter your answer as a number in %; do not include the unit.

{"Compound": "CC1(C)CC[C@]2(C(=O)O)CC[C@]3(C)[C@H](C(=O)C[C@@H]4[C@@]5(C)CC[C@H](O)C(C)(C)[C@@H]5CC[C@]43C)[C@@H]2C1", "inhibition at 10 µM / %": 50}
{"Compound": "C=C(C)[C@@H]1CC[C@]2(C(=O)O)CC[C@]3(C)[C@H](CC[C@@H]4[C@@]5(C)CC[C@H](O)C(C)(C)[C@@H]5CC[C@]43C)[C@@H]12 [BETULINIC ACID]", "inhibition at 10 µM / %": 75}
{"Compound": "CC1(C)CC[C@]2(C(=O)O)CC[C@]3(C)[C@H](C(O)C[C@@H]4[C@@]5(C)CC[C@H](O)C(C)(C)[C@@H]5CC[C@]43C)[C@@H]2C1 (stereo partly specified)", "inhibition at 10 µM / %": 60}
{"Compound": "CC1(C)CC[C@]2(C(=O)O)CC[C@]3(C)C(=CC[C@@H]4[C@@]5(C)CC[C@H](O)[C@@](C)(CO)[C@@H]5CC[C@]43C)[C@@H]2C1 [HEDERAGENIN]", "inhibition at 10 µM / %": 10}
{"Compound": "CC1(C)CC[C@]2(C(=O)O)CC[C@]3(C)C(=CC[C@@H]4[C@@]5(C)CC[C@H](O)C(C)(C)[C@@H]5[C@@H](O)C[C@]43C)[C@@H]2C1", "inhibition at 10 µM / %": 0}

Problem: So what's the measured inhibition at 10 µM for this one? CC1(C)CC[C@]2(C(=O)O)CC[C@]3(C)C(=CC[C@@H]4[C@@]5(C)CC[C@H](OC6O[C@H](CO)[C@@H](O)[C@H](O)[C@H]6O)[C@@](C)(CO)[C@@H]5CC[C@]43C)[C@@H]2C1 (stereo partly specified)
Result: 0

Problem: How about CC1(C)CC[C@]2(C(=O)O)CC[C@]3(C)C(=C[C@@H](O)[C@@H]4[C@@]5(C)CC[C@H](O)C(C)(C)[C@@H]5CC[C@]43C)[C@@H]2C1 ?
Result: 50

Problem: Moving on to the next compound: CC1(C(=O)O)CC[C@]2(C)CC[C@]3(C)C(=CC(=O)[C@@H]4[C@@]5(C)CC[C@H](O)C(C)(C)[C@@H]5CC[C@]43C)[C@@H]2C1 (single isomer, unassigned) [ENOXOLONE]
Result: 5

Problem: Same for C[C@H]1[C@H](C)CC[C@]2(C(=O)O)CC[C@]3(C)C(=CC[C@@H]4[C@@]5(C)CC[C@H](O)C(C)(C)[C@@H]5CC[C@]43C)[C@H]12 [URSOLIC ACID]
Result: 30

Data provenance is ChEMBL document CHEMBL2385072.
